# targetOfAssay: human KOP (Homo sapiens, UniProt P41145)

smilesText	Ki (nM)
CC[C@]1(c2cc(NS(=O)(=O)C3CC3)ccc2F)[C@@H]2CN(CC3(O)Cc4ccccc4C3)C[C@@H]21	460

---

# experimentalDetails: Pharmacokinetics after a single oral administration (plasma, LC-MS/MS)
# conditions: male, Crl:CD1 (ICR), mouse, in vivo, 1 mg/kg

smilesText	concentration at 8 h
CC[C@]1(c2cc(NS(=O)(=O)C3CC3)ccc2F)[C@@H]2CN(CC3(O)Cc4ccccc4C3)C[C@@H]21	10.9 ng/mL

---

# experimentalDetails: Pharmacokinetics after a single oral administration (plasma, LC-MS/MS)
# conditions: male, Crl:CD1 (ICR), mouse, in vivo, 2 mg/kg
measure: concentration at 2 h

smilesText	observedMeasurement
CC[C@]1(c2cc(NS(=O)(=O)C3CC3)ccc2F)[C@@H]2CN(CC3(O)Cc4ccccc4C3)C[C@@H]21	36.1 ng/mL

---

# targetOfAssay: human MOP (Homo sapiens)

molecule	targetOfAssay	Ki / nM
CC[C@]1(c2cc(NS(=O)(=O)C3CC3)ccc2F)[C@@H]2CN(CC3(O)Cc4ccccc4C3)C[C@@H]21 [UD-030]	human MOP (Homo sapiens)	3.1

---

# experimentalDetails: Pharmacokinetics after a single oral administration (plasma, LC-MS/MS)
# conditions: male, Crl:CD1 (ICR), mouse, plasma, 0.5 mg/kg

smilesText	Cmax [ng/mL]
CC[C@]1(c2cc(NS(=O)(=O)C3CC3)ccc2F)[C@@H]2CN(CC3(O)Cc4ccccc4C3)C[C@@H]21	4.95

---

# experimentalDetails: Pharmacokinetics after a single oral administration (plasma, LC-MS/MS)
# conditions: male, Crl:CD1 (ICR), mouse, in vivo, 0.5 mg/kg

smilesText	concentration at 1 h [ng/mL]
CC[C@]1(c2cc(NS(=O)(=O)C3CC3)ccc2F)[C@@H]2CN(CC3(O)Cc4ccccc4C3)C[C@@H]21	2.86

---

# experimentalDetails: Pharmacokinetics after a single oral administration (plasma, LC-MS/MS)
# conditions: male, Crl:CD1 (ICR), mouse, in vivo, 2 mg/kg

smilesText	concentration at 4 h, ng/mL
CC[C@]1(c2cc(NS(=O)(=O)C3CC3)ccc2F)[C@@H]2CN(CC3(O)Cc4ccccc4C3)C[C@@H]21	26.7

---

# targetOfAssay: human KOP (Homo sapiens, UniProt P41145)
# experimentalDetails: [35S]-GTPγS binding assay, hKOP/CHO membranes
pEC50: −log10 of the molar value.

smilesText	pEC50
CC[C@]1(c2cc(NS(=O)(=O)C3CC3)ccc2F)[C@@H]2CN(CC3(O)Cc4ccccc4C3)C[C@@H]21	< 5.00

---

# targetOfAssay: human DOP (Homo sapiens)
measure: Ki (nM)

smilesText	measure	observedMeasurement
CC[C@]1(c2cc(NS(=O)(=O)C3CC3)ccc2F)[C@@H]2CN(CC3(O)Cc4ccccc4C3)C[C@@H]21	Ki	1800

---

# experimentalDetails: Pharmacokinetics after a single oral administration (plasma, LC-MS/MS)
# conditions: male, Crl:CD1 (ICR), mouse, in vivo, 4 mg/kg
measure: concentration at 1 h (ng/mL)

smilesText	observedMeasurement
CC[C@]1(c2cc(NS(=O)(=O)C3CC3)ccc2F)[C@@H]2CN(CC3(O)Cc4ccccc4C3)C[C@@H]21	119

---

# experimentalDetails: Pharmacokinetics after a single oral administration (plasma, LC-MS/MS)
# conditions: male, Crl:CD1 (ICR), mouse, plasma, 4 mg/kg, Tmax, 4 mg/kg p.o., mice
measure: Tmax

smilesText	measure	observedMeasurement
CC[C@]1(c2cc(NS(=O)(=O)C3CC3)ccc2F)[C@@H]2CN(CC3(O)Cc4ccccc4C3)C[C@@H]21	Tmax	1 h
